B1: LINE1-mini (parent)
chain: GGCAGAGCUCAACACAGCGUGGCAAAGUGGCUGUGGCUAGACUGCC

Variants of: B1
Measurement description: self-cleavage, relative activity (ratio to wild type); higher = more cleavage; in vitro, sequencing; the parent is a self-cleaving ribozyme
Can you tell me self-cleavage for the items I'm about to list?
Answers are plain numbers.

Solved cases (6 shown):
Problem: Given the variant G29A C37G , what is its reported self-cleavage?
Solution: 0.02

Problem: For the variant shown here, C13U A16U , give the reported self-cleavage.
Solution: 0.13

Problem: Value lookup for self-cleavage; key = A26G G30U
Solution: 1.61

Problem: What self-cleavage value was documented for this variant, C3G G7C ?
Solution: 0.05

Problem: self-cleavage lookup needed for U9A G17U , thanks.
Solution: 0.13

Problem: self-cleavage for G7U U9A ?
Solution: 0.23

Hey, can you go through the list below and give me self-cleavage for every item?
1. G1C G21A
2. G5A A16G
3. A12G G36U
4. A6U C8U
5. C15G U32C
6. A16G U32G
7. C8A G21C

Solution:
[0.42, 0.07, 0.03, 0.29, 0.03, 0.11, 0.21]

I'm hoping you can list self-cleavage for every variant here, please.
1. A12C C31G
2. A14G G36C
3. A16G C23U
4. C3U C45G
5. C10U G21U
6. A4C A25U
7. G30U G35A

Solution:
1: 0.01; 2: 0.07; 3: 0.82; 4: 0.12; 5: 0.33; 6: 0.13; 7: 0.05

Could I get self-cleavage for every one of these entries?
1. G2A G33A
2. A12G U20G

Solution:
0.2
0.02
